target: Carbonic anhydrase 1 (Homo sapiens, UniProt P00915); assay: Inhibition of human CA1 by stopped flow CO2 hydrase assay
Sequence (P00915 whole entry): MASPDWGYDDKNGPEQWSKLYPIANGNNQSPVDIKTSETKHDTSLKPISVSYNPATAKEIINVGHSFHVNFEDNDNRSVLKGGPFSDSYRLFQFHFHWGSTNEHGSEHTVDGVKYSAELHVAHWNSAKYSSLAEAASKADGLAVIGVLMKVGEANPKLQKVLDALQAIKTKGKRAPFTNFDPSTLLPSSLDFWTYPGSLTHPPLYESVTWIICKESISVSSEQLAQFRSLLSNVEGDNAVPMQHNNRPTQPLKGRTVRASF
observable: pKi
Scale explanation: pKi corresponds to minus log10 of a concentration expressed in moles per litre.

-- ask Reported pKi for "Cc1nc(-c2cc3ccccc3oc2=O)ccc1C(=O)/C=C/c1cccs1" : what is it?
-- reply 5.96

---

System: Carbonic anhydrase 1 (Homo sapiens, UniProt P00915) | Read-out: pKi
pKi: −log10 of the molar value.

| compoundString | targetOrTestSystem | pKi |
| --- | --- | --- |
| O=C(CN1C(=O)S/C(=C\c2cccs2)C1=O)c1cc2ccccc2oc1=O | Carbonic anhydrase 1 (Homo sapiens, UniProt P00915) | < 4.00 |
| CCOc1cccc2cc(/C(C)=N/Nc3nc(-c4ccc(F)cc4)cs3)c(=O)oc12 | Carbonic anhydrase 1 (Homo sapiens, UniProt P00915) | < 4.00 |
| CCOc1cccc2cc(/C(C)=N/Nc3nc(-c4ccc(Br)cc4)cs3)c(=O)oc12 | Carbonic anhydrase 1 (Homo sapiens, UniProt P00915) | < 4.00 |
| CCOc1cccc2cc(/C(C)=N/Nc3nc(-c4cc5cc(Br)ccc5oc4=O)cs3)c(=O)oc12 | Carbonic anhydrase 1 (Homo sapiens, UniProt P00915) | < 4.00 |

Could you now consider this next compound?
-- ask Carbonic anhydrase 1 (Homo sapiens, UniProt P00915) / pKi / "CCOc1cccc2cc(/C(C)=N/Nc3nc(-c4ccc([N+](=O)[O-])cc4)cs3)c(=O)oc12" : value?
-- reply < 4.00

Taken from ChEMBL document CHEMBL5506018.
